Target: T1, full-length recombinant mouse PAD4 (mouse, UniProt Q9Z183 1-666)
T1 construct: mature; Full-length recombinant
T1 sequence (Q9Z183 whole entry): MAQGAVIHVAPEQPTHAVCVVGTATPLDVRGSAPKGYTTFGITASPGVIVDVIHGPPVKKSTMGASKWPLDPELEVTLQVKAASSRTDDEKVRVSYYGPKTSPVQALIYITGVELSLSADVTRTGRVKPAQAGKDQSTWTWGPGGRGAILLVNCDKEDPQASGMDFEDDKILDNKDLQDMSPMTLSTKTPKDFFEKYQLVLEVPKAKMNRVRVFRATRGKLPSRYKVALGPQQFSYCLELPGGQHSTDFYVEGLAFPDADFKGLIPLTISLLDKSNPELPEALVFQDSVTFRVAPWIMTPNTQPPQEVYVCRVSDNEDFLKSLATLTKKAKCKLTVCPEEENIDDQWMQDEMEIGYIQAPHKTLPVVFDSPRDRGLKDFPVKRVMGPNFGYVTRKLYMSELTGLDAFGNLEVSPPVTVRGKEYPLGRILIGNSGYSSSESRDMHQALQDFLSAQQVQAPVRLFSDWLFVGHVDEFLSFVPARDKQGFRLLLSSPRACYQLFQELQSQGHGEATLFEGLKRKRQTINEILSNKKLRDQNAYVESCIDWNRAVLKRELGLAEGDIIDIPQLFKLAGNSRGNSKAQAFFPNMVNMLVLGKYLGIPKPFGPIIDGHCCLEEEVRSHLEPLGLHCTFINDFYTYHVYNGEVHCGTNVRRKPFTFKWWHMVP
Assay: ELISA, coated mouse PAD4; antibody 0.0039063 ug/mL
measurementKind: OD 490/630 nm

INSERT INTO measurements (binder, measurementkind, testresult) VALUES
  ('G9 (antibody, V domains shown, Chicken variable regions in a mouse chimeric antibody (IgG1); also called anti-PAD4 antibody G9) VH: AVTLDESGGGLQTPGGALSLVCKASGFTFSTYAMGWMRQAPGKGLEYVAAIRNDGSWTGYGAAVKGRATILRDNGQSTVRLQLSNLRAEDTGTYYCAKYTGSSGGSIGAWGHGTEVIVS VL: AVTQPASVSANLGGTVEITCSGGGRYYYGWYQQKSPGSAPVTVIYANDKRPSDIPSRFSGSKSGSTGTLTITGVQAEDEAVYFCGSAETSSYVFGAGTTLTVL', 'OD 490/630 nm', 1.39),
  ('A11 (antibody, V domains shown, Chicken variable regions in a mouse chimeric antibody (IgG1); also called anti-PAD4 antibody A11) VH: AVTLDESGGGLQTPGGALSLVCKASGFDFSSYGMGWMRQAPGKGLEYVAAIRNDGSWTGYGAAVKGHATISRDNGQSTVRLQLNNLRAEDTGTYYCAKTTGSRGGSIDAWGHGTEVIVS VL: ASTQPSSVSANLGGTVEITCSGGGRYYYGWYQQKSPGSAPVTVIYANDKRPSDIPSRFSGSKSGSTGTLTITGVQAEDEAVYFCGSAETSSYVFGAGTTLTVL', 'OD 490/630 nm', 1.07),
  ('H7 (antibody, V domains shown, Chicken variable regions in a mouse chimeric antibody (IgG1); also called anti-PAD4 antibody H7) VH: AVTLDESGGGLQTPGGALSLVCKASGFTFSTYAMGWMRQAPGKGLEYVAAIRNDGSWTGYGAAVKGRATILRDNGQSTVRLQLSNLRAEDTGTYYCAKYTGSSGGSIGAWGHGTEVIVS VL: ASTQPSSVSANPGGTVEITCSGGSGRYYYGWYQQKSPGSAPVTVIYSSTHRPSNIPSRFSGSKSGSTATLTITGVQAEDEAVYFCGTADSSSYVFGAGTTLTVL', 'OD 490/630 nm', 1.41);
